Biological target: T1, cynomolgus monkey PD1 human Fc tagged recombinant protein (cynomolgus monkey, UniProt Q15116 25-170 (human entry), limits assumed)
T1 construct: also called cyno PD1-Fc; cyno PD1; not shown: human Fc tag
T1 chain: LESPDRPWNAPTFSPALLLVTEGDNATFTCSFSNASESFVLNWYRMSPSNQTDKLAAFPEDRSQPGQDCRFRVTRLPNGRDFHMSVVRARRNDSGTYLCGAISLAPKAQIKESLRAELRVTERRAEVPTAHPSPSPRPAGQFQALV
Assay: direct titration ELISA, IgG1 null on coated PD1-Fc (FIG. 3A)
Attribute measured: binding result

MAB01 IgG1 null (antibody, V domains shown, Human IgG1 null format (L234A, L235A, G237A) with human C kappa; only variable domains are tied to the clone) VH: EVQLVESGGGLVQPGGSLRLSCAASGFTFSSYMMSWVRQAPGKGLEWVATISGGGANTYYPDSVKGRFTISRDNAKNSLYLQMNSLRAEDTAVYYCARQLYYFDYWGQGTTVTVSS VL: DIQMTQSPSSLSASVGDRVTITCLASQGIGPWLSWYQQKPGKAPKLLIYTATSLADGVPSRFSGSGSGTDFTLTISSLQPEDFATYYCQQVAELPFGFGGGTKVEIK    binds
MAB02 IgG1 null (antibody, V domains shown, Human IgG1 null format (L234A, L235A, G237A) with human C kappa; only variable domains are tied to the clone) VH: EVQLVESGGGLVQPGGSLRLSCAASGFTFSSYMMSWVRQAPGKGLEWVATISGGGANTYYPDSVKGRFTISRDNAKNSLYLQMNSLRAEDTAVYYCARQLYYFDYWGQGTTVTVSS VL: DIQMTQSPSSLSASVGDRVTITCLASQPLGIWLSWYQQKPGKAPKLLIYTATSLADGVPSRFSGSGSGTDFTLTISSLQPEDFATYYCQQVAELPFGFGGGTKVEIK    binds
